Origin of values: the DeepSol protein solubility set

- Assay details: soluble on expression in E. coli; label from the status in PepcDB or PDB records
Assay metric: soluble on expression in E. coli

# Sequence data, Data value
measured = [
    ("GPLGSHENCQSPSMKRSRCTNYSFRTLTLSTAEYTKVVEFLAREAKVPRYTWVPTQVVSHILPTEGLERFLTAIKAGHDSVLFNANGIYTMGDMIREFEKHNDIFERIGIDSSKLSKYYEAFLSFYRIQEAMKLPK", "soluble"),
    ("GDDNSYSLGDIWIAVATVVPEGNNVYYLRLDDGDKLWPAATNYPNYQPKPNQRALVNFTILADSTQSNLGGFSHYIKVNAIHNILTKSIAKNEGAANDSIYGTDPVSIYNNNMWIGDGYLNIYFETLWGGKTAHFINLIQPDAENDPYTLEFRHNAYDDPQYTIGAGRVAFNLSSLPDTKGETVDLVVNYWTSEGKQAYKLKYNSDKTKMEDTSQGYTNDSISNITDMK", "soluble"),
]

---

- Assay details: soluble on expression in E. coli; label from the status in PepcDB or PDB records
Assay metric: soluble on expression in E. coli

# Sequence data, Assay metric, Data value
measured = [
    ("MGSDKIHHHHHHMLDQAERLRNMALKKNAGEEIKRPVIITVTSGKGGVGKSNFVVNLSITLQQMNKKVLIFDADVGMGNDDILLGCISKYSVFDVIYNNMKIEDAIVEGPFGVKLLPGGSGITKFKDITEDQINAFVKKLASIGNFDYIIMDTGAGVNRSVLGFISCCEELIILTTPEPTSLTDAYSLFKAVVHFKIKSYAKVVINRVVDNKEGLETYKKFQSVAKKFLKADTEFLGSISEDSRIVKAVRNQTPFVVENPNCYAAKDIQYIANKLMGTTTKDNGLGIEGLFKKLFKIFS", "soluble on expression in E. coli", "not soluble"),
    ("QVQLQQSGPEDVKPGASVKISCKASGYTFTDYYMNWVKQSPGKGLEWIGDINPNNGGTSYNQKFKGRATLTVDKSSSTAYMELRSLTSEDSSVYYCESQSGAYWGQGTTVTVSA", "soluble on expression in E. coli", "soluble"),
    ("MGHHHHHHSHMEGSFSDGGALPEGLAEEAEPQGAAWSGDSGTVSQSHSSASGPWEDEGAEDGAPGRDLPLLRRAAAGYAACLLPGAGARPEVEALDASLEDLLTRVDEFVGMLDMLRGDSSHVVSEGVPRIHAKAAEMRRIYSRIDRLEAFVRMVGGRVARMEEQVTKAEAELGTFPRAFKKLLHTMNVPSLFSKSAPSRPQQAGYEAPVLFRTEDYFPCCSERPQL", "soluble on expression in E. coli", "not soluble"),
    ("GPLGSMKLRVENPKKAQKHFVQNLNNVVFTNKELEDIYNLSNKEETKEVLKLFKLKVNQFYRHAFGIVNDYNGLLEYKEIFNMMFLKLSVVFDTQRKEANNVEQIKRNIAILDEIMAKADNDLSYFISQNKNFQELWDKAVKLTKEMKIKLKGQKLDLRDGEVAINKVRELFGSDKNVKELWWFRSLLVKGVYLIKRYYEGDIELATTSDFAKAVFE", "soluble on expression in E. coli", "soluble"),
]

---

- Assay details: soluble on expression in E. coli; label from the status in PepcDB or PDB records
Assay metric: soluble on expression in E. coli

Sample records with soluble on expression in E. coli:
# Sequence data, soluble on expression in E. coli
records = [
    ("MDTDAIRSEIFGQLARPDNSGIPKYRRLSNILVEAIRRGVWQPGDRLPAEEQLTEMTPFSLGTVQRALRALTDEGLVIRMQGHGNFVADQQRQMADPWHCRFLDDESDGIVPIYSKAVQRAVVTPSETGPWQRYLHSGSVMRLDRIINVNDEFRIFSRFYADRELLQPLWHVPLEELDGANFKDIIMRQVGLPITEIDRSVRIRRIDAQAARLIGVAPEATVLFMQAVARAGRDACIYYQEFYIPETGRALQLPEQRPRVHGR", "not soluble"),
    ("ELSYRLLDQIYINPAVILKREEQYIKDFQSYVTEQKLSMNDRKKIKEFTKTDWTIVMALYQENDIIFSSDSRFIVPLPADEYGETIKDTSEASGVFNVTFTDGAVQAALVYTGYENYQS", "soluble"),
    ("MDATISVVCYKSKTLSNGEHPLMLRISKDGKKKYQSLGISVNPKFWDFQKNKPKPKCPNLEYLQKIILDKKLELQKKMLEIKSDQKEYSAATLIEANEKLQVAKNVDCFYKEIIAQCEINNKCGNRLVYLNSYNSLKRFTNGKLEIPFNTINVAWLEKYEKWLRSNGNKETTISLMFRTLRSTYNKAIKERCAHLSDYPFQEYKISKFDTSTQKRAIAKTDMLKFTETSQPIGQKKYVELSKDIFIFSYLCGGINFTDIANLTQENIVNGRLHYIRQKTGKLIKIGIPQEAMQIIKKYTDESNG", "not soluble"),
    ("MLRIYAPASSANISVGFDTLGAAISPIDGSLLGDVVQIESISTGFELESAGYFVRKLPKEPQKNIVYQAYVLFSEQLKLRGANVKPLRLTLEKNMPIGSGLGSSACSIVAALVALNQFHNEPFSKMELLEMMGELEGRISGSIHYDNVAPCYLGGVQFMVQS", "not soluble"),
    ("MTAVVNIAAYKFVSIANPADLREPMLEQAGQRQLKGTVLLAPEGINLFLAGAADAIEGFLRWLRADARFADLQAKYSESARMPFRKLLVKVKREIIRMDHPAIRPEAGRAPAVDAATLRRWLAQGRDDQGRELVMLDTRNAFEVEVGTFRGALDWRIERFTQFPQAVRDNQAALAGKTVVSFCTGGIRCEKAAIYMAEAGIEHVYQLEGGILKYFEETDGAGFDGACFVFDERVALDAALAPQALEHHHHHH", "soluble"),
]

For the next question, use this sequence.
Prompt: Quick one: soluble on expression in E. coli for MKPIDEFLYVKQNYLTSDTNSLMRLYFPIIGSDAAGLYQYFVSFFDNGEKKHKFSEILNHTQFGMACFENALSVLTAMDLLVFYRQENLYYIKLKAPLNAETFLKNAVYRHLLEQKIGQVAVEHLDLHLPREAQDLSKQFSEVFTAAGQLDLKTPKSKTDFDLDHFKDLMIRDNLQFTDEQTDVIALYILSEKYQLTWYETYLLAKETASNYRISLKRMQAKQEQRDHVDADNSFSKKEQIIIEEAKADKVEVFLAKIKKTRHAAITKDERSLLAELAEMGFLDEVINIMLLYTLDKTNTANINKTYIMKIANDFAFQKIDSAEKAVLKLRSFAERKTKQNQKKIKESSKNNVPEWSNQDYQNNTTADEQARLDEIKRKTLAR ?
Completion: not soluble
